# System: female CBA/J mice
# RUN DESCRIPTION: In vivo toxicity, bolus ip
# DETAILS: 25 mg/kg bolus ip, day 5
Non-standard residues stand in square brackets, D forms with d. Residues, ends and D or L forms follow the SMILES beside them. Nva = CCC[C@H](N)C(=O)O
PROPERTY NAME: Liver weight relative to total weight (%)
Numbers only; they are read as %.

[ask] Any idea what Liver weight relative to total weight (%) was measured for CCC[C@H](NC(=O)[C@@H]1CCCN1C(=O)[C@@H](NC(=O)[C@H](N)CC(N)=O)[C@@H](C)CC)C(=O)N[C@@H](CC(C)C)C(=O)N[C@@H](Cc1ccc(O)cc1)C(=O)N[C@H](CO)C(=O)N[C@@H](Cc1ccccc1)C(=O)N[C@@H](C)C(=O)N[C@H](CO)C(N)=O [ADP 355-NH2] (H-[dN]IP[Nva]LY[dS]FA[dS]-NH2) ?
[reply] 5.9
